tested on: Zymoseptoria tritici (SEPTTR-184); test: Efficacy of target gene fragments (MgCytB dsRNA tiles) on wheat plants, SEPTTR-184; type: in vivo; parameters: scale not given here; conditions: 3.125 ppm; 1DP (preventative)
Here, each record is paired with measured Average of 2 trials SEPTTR-184 1DP data.

# molecule, Average of 2 trials SEPTTR-184 1DP
data = [
    ("MgCytB-T6: 258 bp dsRNA of Zymoseptoria CytB region T6, location 775-1032 (SEQ ID NO:9) (nucleic acid, listed as Zymoseptoria tritici, complementary strand of dsRNA) GTTATGGCTAACCCTATGCAAACTCCACCTGCTATAGTGCCTGAATGATATTTATTACCTTTCTACGCTATACTAAGATCAATACCTAACAAACTATTAGGTGTGATCGCAATGTTTTCTGCTATATTGATTATAATGATAATGCCAATTACCGATTTAGGTAGAAGTAGAGGATTACAGTTTAGACCTTTAAGCAAGATCACATTTTACATATTTGTTGCTAACTTCTTAGTATTAATGCAATTAGGTGCTAATCAC", 72),
    ("MgCytB-T3: 116 bp dsRNA of Zymoseptoria CytB region 3, location 279-394 (SEQ ID NO:6) (nucleic acid, listed as Zymoseptoria tritici, long dsRNA, chemistry not given here, further chemistry not given here) TTACCTGCACGTGGGTAGAGGGTTATACTACGGGTCATACAAAGCCCCTAGAACATTAACATGAACAATCGGTACTATAATACTAGTTCTGATGATGGCAACCGCATTCTTAGGGT", 59),
    ("MgCytB-T7: 221 bp dsRNA of Zymoseptoria CytB region T7, location 947-1167 (SEQ ID NO:10) (nucleic acid, listed as Zymoseptoria tritici, complementary strand of dsRNA) GATTACAGTTTAGACCTTTAAGCAAGATCACATTTTACATATTTGTTGCTAACTTCTTAGTATTAATGCAATTAGGTGCTAATCACGTTGAGTCACCATTTATAGAATTTGGGCAAATTAGTACAGTACTGTACTTTTCACATTTCTTAATCATAGTGCCTCTAGTAAGCTTAATCGAGAATACTTTAGTGGATATGCACTTAAACAACACAATAACGTAA", 60),
]
